- tested-target: Angiotensin II receptor (Rattus norvegicus, UniProt P29089+P25095+P35351)
- method-notes: Concentration required for 50% inhibition of binding against Angiotensin II receptor in the rat adrenal cortex tissue
- Format: tissue-based
- run-conditions: read-out: IC50
readout-name: pIC50
Numbers only, as −log10 of the molar value.

Record CCCCc1nc2ccc(C(C)(C)OC)cc2c(=O)n1Cc1ccc(-c2ccccc2-c2nn[nH]n2)cc1 . Reported pIC50: 8.22

* * *

- tested-target: Angiotensin II receptor (Rattus norvegicus, UniProt P29089+P25095+P35351)
- method-notes: Concentration required for 50% inhibition of binding against Angiotensin II receptor in the rat adrenal cortex tissue
- Format: tissue-based
What IC50 was measured for each of the following?
Numbers only, in µM.

These solved cases illustrate the format of a correct answer.
[
  {
    "compound": "CC1Nc2ccccc2C(=O)N1Cc1ccc(-c2ccccc2-c2nn[nH]n2)cc1 (centres undefined)",
    "tested-target": "Angiotensin II receptor (Rattus norvegicus, UniProt P29089+P25095+P35351)",
    "IC50 / µM": 90
  },
  {
    "compound": "CCCCC1(CCCC)Nc2ccccc2C(=O)N1Cc1ccc(-c2ccccc2-c2nn[nH]n2)cc1",
    "tested-target": "Angiotensin II receptor (Rattus norvegicus, UniProt P29089+P25095+P35351)",
    "IC50 / µM": 13
  },
  {
    "compound": "CCC1Nc2ccc(C(C)C)cc2C(=O)N1Cc1ccc(-c2ccccc2-c2nn[nH]n2)cc1 (centres undefined)",
    "tested-target": "Angiotensin II receptor (Rattus norvegicus, UniProt P29089+P25095+P35351)",
    "IC50 / µM": 45
  },
  {
    "compound": "CCCCC1Nc2ccc(CC)cc2C(=O)N1Cc1ccc(-c2ccccc2-c2nn[nH]n2)cc1 (centres undefined)",
    "tested-target": "Angiotensin II receptor (Rattus norvegicus, UniProt P29089+P25095+P35351)",
    "IC50 / µM": 0.37
  }
]

Dear colleague, could you send me IC50 for each of the items below? Thanks.
1. CCCCC1Nc2ccc(C(C)(C)OC)cc2C(=O)N1Cc1ccc(-c2ccccc2-c2nn[nH]n2)cc1 (centres undefined)
2. CCCCC1N(Cc2ccc(-c3ccccc3-c3nn[nH]n3)cc2)C(=O)c2ccccc2N1C (centres undefined)
3. CCCC1Nc2ccccc2C(=O)N1Cc1ccc(-c2ccccc2-c2nn[nH]n2)cc1 (centres undefined)

Solution:
1. 2.7
2. 1.1
3. 0.54

# batch size: 2; output IC50 per entry
1. CCCC1N(Cc2ccc(-c3ccccc3-c3nn[nH]n3)cc2)C(=O)c2ccccc2N1C (centres undefined)
2. CCCCC1N(Cc2ccc(-c3ccccc3-c3nn[nH]n3)cc2)C(=O)c2cc(C(C)(C)OC)ccc2N1C (centres undefined)

Solution:
0.05
2
